Entry source: PubChem BioAssay (NCI)

# Test system: MCF7 breast
# TEST_DETAILS: NCI tumour cell line growth inhibition, 48 h
MEASURED_PARAMETER: TGI

Here is how some compounds turned out for TGI.
NCCn1c2c(c3ccccc3c1=O)C(=O)c1ccccc1-2 :: 12.6 µM
Fc1ccc(OCc2ccc3nc(-c4ccccc4)c(Cl)nc3c2)cc1 :: > 100 µM
O=C1c2cccnc2C(=O)c2c1nc1ccccc1c2-c1ccc2c3c(nc4ccccc42)C(=O)c2cccnc2-c13 :: 8.05 µM
Nc1cc2nc(-c3ccccc3)cn2cn1 :: > 100 µM

Ask: Recorded TGI for "CC(=O)Nc1ccc2c(c1)nc1c3ccccc3ccn21" with MCF7 breast, please?
Result: > 100 µM

---

# Test system: SN12C renal
# TEST_DETAILS: NCI tumour cell line growth inhibition, 48 h; in the data active = GI50 below about 0.43 µM; inactive = the rest
Your answer must be one of the following: 1 (active), 0 (inactive)

A selection of reference data follows.
COc1cc2c(c(OC)c1OC)-c1ccc(SC)c(=O)cc1[C@@H](NC(=O)c1ccc(F)cc1)CC2 :: 1
COc1ccc(-c2nn(-c3cccc(Cl)c3)cc2/C=C2\C(=N)N(c3ccccc3)N=C2N)cc1 :: 0
Cc1ccc(-c2cc(C(Cl)Cl)on2)cc1 :: 0
CCOC(=O)/N=c1\ssc(Cl)c1Cl :: 0
Cc1ccc(NCCNCC(O)CO)c2c(=O)c3ccccc3sc12 (stereo not drawn) :: 0

Ask: Record request — test call for "NC(=O)c1c(NC(=O)c2cccc(C(F)(F)F)c2)sc2c1CCC(=O)C2"
Result: 1

Ask: Record request — test call for "Cc1cc(C(=O)Nc2cc(Nc3ncccc3-c3ncnc4nc[nH]c34)ccc2F)cc(C(C)(C)C#N)c1"
Result: 0

Ask: Record request — test call for "Cc1cc(Nc2cc(N3CCN(C)CC3)nc(C#Cc3ccccc3)n2)n[nH]1"
Result: 0

Ask: Record request — test call for "COc1ccc(-c2cn(-c3cc(OC)c(OC)c(OC)c3)c(=O)n2-c2ccccc2)cc1"
Result: 0

Ask: Record request — test call for "CC(=O)[O-].O=[N+]([O-])c1ccc([O-])c(C=NCCN=Cc2cc([N+](=O)[O-])ccc2[O-])c1.[Mn+3]"
Result: 0

Ask: Record request — test call for "CCOc1cccc(/C=N/NC(=O)Cc2ccc(Nc3ccnc(C(F)(F)F)c3)cc2)c1O"
Result: 0

Ask: Record request — test call for "C#CCn1cc(C=C2C(=O)NC(=S)NC2=O)c2cc(Cl)ccc21"
Result: 0

Ask: Record request — test call for "COc1ccc2c(c1)c(-c1cc(-c3cn(C)c4ccc(OC)cc34)[nH]n1)cn2C"
Result: 0

Ask: Record request — test call for COC12C=C/C(=C(/C(=O)OCc3csc(SC)n3)C(=O)CCCCCCCCC3(OC)C=C/C(=C(/C(=O)OCc4cnc(SC)s4)C(=O)CCCCCCCC1)O3)O2 (stereo not drawn)
Result: 0

Ask: Record request — test call for "Cc1cc2c(-c3nc4ccccn4c3NC34CC5CC(CC(C5)C3)C4)c(O)c(O)cc2c(O)c1-c1c(C)cc2c(-c3nc4ccccn4c3NC34CC5CC(CC(C5)C3)C4)c(O)c(O)cc2c1O"
Result: 0

Ask: Record request — test call for "CC(C)(C)OC(=O)n1c(Cl)c(C(=O)N=C=S)c2ccccc21"
Result: 0

Ask: Record request — test call for N#CC1=C(N)Oc2c(sc3c(Br)cccc23)C1c1ccc(F)cc1 (stereo not drawn)
Result: 0

Ask: Record request — test call for "O=C(Nc1cccc(Cl)c1)c1cc(Cl)ccc1O"
Result: 0

Ask: Record request — test call for "CCn1c(-c2nonc2N)nc2c(C#CC(C)(C)O)ncc(OC[C@@H]3CCCN3)c21"
Result: 0

Ask: Record request — test call for "CCc1ccc(OCc2ccccc2C(=O)Nc2ccc3nc(C)cc(N)c3c2)cc1"
Result: 0

Ask: Record request — test call for N#CC1=C(N)NC(=S)C(C#N)C12Nc1ccccc1S2 (stereo not drawn)
Result: 0

Ask: Record request — test call for CCCCCCCCCCCCCCCCCCNC(=O)[C@H]1CSC(c2ccc(F)c(OC)c2)N1 (stereo partly drawn)
Result: 0

Ask: Record request — test call for Cc1ccc2c(C(C[N+](=O)[O-])c3ccco3)c(-c3ccccc3)[nH]c2c1 (stereo not drawn)
Result: 0
